Biological target: recombinant CD73 (Homo sapiens (Human))
Sequence (P21589 27-547): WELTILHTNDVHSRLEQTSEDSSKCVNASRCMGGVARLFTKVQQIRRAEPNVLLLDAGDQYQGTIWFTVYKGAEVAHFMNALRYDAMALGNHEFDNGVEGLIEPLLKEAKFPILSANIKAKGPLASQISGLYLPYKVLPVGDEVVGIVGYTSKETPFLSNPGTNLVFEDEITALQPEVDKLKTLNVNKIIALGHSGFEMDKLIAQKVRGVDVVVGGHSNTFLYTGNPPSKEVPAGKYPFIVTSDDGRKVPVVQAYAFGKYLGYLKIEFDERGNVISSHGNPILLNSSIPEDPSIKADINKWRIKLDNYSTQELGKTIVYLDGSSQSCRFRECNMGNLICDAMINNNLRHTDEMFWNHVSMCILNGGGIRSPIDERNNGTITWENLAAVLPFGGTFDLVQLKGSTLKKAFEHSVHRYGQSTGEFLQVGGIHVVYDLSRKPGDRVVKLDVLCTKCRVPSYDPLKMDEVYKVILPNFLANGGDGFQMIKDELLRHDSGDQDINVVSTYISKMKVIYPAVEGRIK
Assay: Inhibition of soluble recombinant CD73 enzyme activity (Malachite Green)
Details: recombinant CD73 0.5 nM, AMP 50 μM, 30 minutes at room temperature
Method: The concentration of inorganic phosphate was determined using a phosphate standard curve.
OBSERVABLE: IC50

INSERT INTO assay_data (molecule, study_target, endpoint_result) VALUES
  ('Nc1ncnc2c1ncn2[C@@H]1O[C@H](COC(C(=O)O)C(=O)O)[C@@H](O)C1F (stereo in doubt) [compound 9]', 'recombinant CD73 (Homo sapiens (Human))', '> 50 µM');
